Biological target: TWIK1 (K2P1.1/KCNK1) (Homo sapiens, UniProt O00180, I140A)
Construct: full-length cDNA (OriGene) in pcDNA3.1(neo+), stably expressed in HEK293; mutants transiently transfected in HEK293 with CD8; homodimer
Sequence (O00180 1-336 I140A): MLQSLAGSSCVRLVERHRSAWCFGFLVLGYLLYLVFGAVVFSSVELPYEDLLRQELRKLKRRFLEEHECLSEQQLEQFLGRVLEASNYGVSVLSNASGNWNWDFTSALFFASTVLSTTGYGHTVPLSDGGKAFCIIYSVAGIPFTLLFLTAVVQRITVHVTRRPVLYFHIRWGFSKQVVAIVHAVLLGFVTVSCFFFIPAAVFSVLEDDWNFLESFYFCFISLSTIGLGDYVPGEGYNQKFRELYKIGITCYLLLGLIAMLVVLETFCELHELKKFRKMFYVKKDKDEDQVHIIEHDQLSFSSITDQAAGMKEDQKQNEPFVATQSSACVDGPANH
Test: whole-cell patch clamp, transiently transfected HEK293, Hill fit

>  <Compound>
C=CCc1ccc(O)c(-c2cc(CC=C)ccc2O)c1 [magnolol]

>  <Unit Of Measurement>
µM

>  <IC50>
10.2

$$$$

---

target: TWIK1 (K2P1.1/KCNK1) (Homo sapiens, UniProt O00180, G229A); construct: full-length cDNA (OriGene) in pcDNA3.1(neo+), stably expressed in HEK293; mutants transiently transfected in HEK293 with CD8; homodimer; assay: whole-cell patch clamp, transiently transfected HEK293, Hill fit; assay type: cell-based
Metric: IC50 (µM)

>  <Chemical String>
C=CCc1ccc(O)c(-c2cc(CC=C)ccc2O)c1

>  <Target Desc>
TWIK1 (K2P1.1/KCNK1) (Homo sapiens, UniProt O00180, G229A)

>  <Metric>
IC50

>  <Recorded Value>
20.8

$$$$

---

biological target: TWIK1 (K2P1.1/KCNK1) (Homo sapiens, UniProt O00180, T225A); construct: full-length cDNA (OriGene) in pcDNA3.1(neo+), stably expressed in HEK293; mutants transiently transfected in HEK293 with CD8; homodimer; experiment: whole-cell patch clamp, transiently transfected HEK293, Hill fit
pIC50: −log10 of the molar value.
Metric: pIC50

>  <Chemical String>
C=CCc1ccc(O)c(-c2cc(CC=C)ccc2O)c1

>  <Recorded Value>
4.66

$$$$

---

Target: TWIK1 (K2P1.1/KCNK1) (Homo sapiens, UniProt O00180, L223A)
Construct: full-length cDNA (OriGene) in pcDNA3.1(neo+), stably expressed in HEK293; mutants transiently transfected in HEK293 with CD8; homodimer
Sequence (O00180 1-336 L223A): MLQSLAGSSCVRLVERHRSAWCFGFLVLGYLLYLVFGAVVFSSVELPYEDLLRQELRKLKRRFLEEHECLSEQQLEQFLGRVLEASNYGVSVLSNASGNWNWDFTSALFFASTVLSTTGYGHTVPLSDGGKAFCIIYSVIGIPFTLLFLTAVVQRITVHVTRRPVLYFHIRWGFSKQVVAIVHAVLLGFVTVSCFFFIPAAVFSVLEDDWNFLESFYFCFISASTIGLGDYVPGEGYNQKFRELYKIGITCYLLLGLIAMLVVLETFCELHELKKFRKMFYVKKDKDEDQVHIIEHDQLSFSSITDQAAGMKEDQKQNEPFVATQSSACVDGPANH
Test: whole-cell patch clamp, transiently transfected HEK293, Hill fit
Metric: IC50

>  <Chemical String>
C=CCc1ccc(O)c(-c2cc(CC=C)ccc2O)c1

>  <Target Desc>
TWIK1 (K2P1.1/KCNK1) (Homo sapiens, UniProt O00180, L223A)

>  <Recorded Value>
9.55 µM

$$$$

Values were extracted from paper PMC10574557.
